Every entry's value here was drawn from PubChem BioAssay (NCI).

# Test system: MALME-3M melanoma
# assay_name: NCI tumour cell line growth inhibition, 48 h
compounds and their reported TGI

- compound: "O=C1OC2C(O)COC2(O)C1(O)C(C[N+](=O)[O-])c1ccc(Cl)cc1 (stereo not drawn)"
  unit_annotation: "µM"
  relation_operator: "="
  TGI: 30.3
- compound: "C#CCSc1n[nH]c(-c2ccco2)n1"
  unit_annotation: "µM"
  relation_operator: ">"
  TGI: 100
- compound: "C=C1C(=O)OC2/C=C(\\C)C3OC3/C=C(/C(=O)OC)C(O)C(OC(=O)C3(C)OC3C)C12 (stereo not drawn)"
  unit_annotation: "µM"
  relation_operator: "="
  TGI: 3.21
- compound: "CCOC(=O)C[C@@H](C)[C@]1(C(=O)OC)CCCC1=O"
  unit_annotation: "µM"
  relation_operator: ">"
  TGI: 100
- compound: "N#CC1(C#N)NC(c2cccnc2)C(C#N)(C#N)NC1c1cccnc1 (stereo not drawn)"
  unit_annotation: "µM"
  relation_operator: ">"
  TGI: 100
- compound: "C=CCOc1ccc(/C(N=Nc2ccc(C)cc2)=N/NC(=O)c2ccccc2)cc1OC"
  unit_annotation: "µM"
  relation_operator: "="
  TGI: 76.9
- compound: "COC(=O)[C@H]1C(=O)[C@@]2(C)[C@H]([C@H](OC(=O)c3ccccc3)[C@]3(O)C[C@H](OC(=O)[C@H](O)[C@@H](NC(=O)c4ccc(F)cc4)c4ccccc4)C(C)=C1C3(C)C)[C@]1(OC(C)=O)CO[C@@H]1C[C@@H]2O"
  unit_annotation: "µM"
  relation_operator: ">"
  TGI: 25
- compound: "CC1=C(C(=O)Nc2ccccc2C)C(c2ccc(C3C(C(=O)Nc4ccccc4C)=C(C)NC(C)=C3C(=O)Nc3ccccc3C)cc2)C(C(=O)Nc2ccccc2C)=C(C)N1"
  unit_annotation: "µM"
  relation_operator: "="
  TGI: 6.13
